# protocol-text: yeast display, Sf9 membrane polyspecificity reagent, FACS + sequencing; frameworks hold sequencing errors
value-type: polyreactivity (PSR sort gate)

Some entries whose results are on file:
| biopolymer-sequence | value-type | result |
| --- | --- | --- |
| QVQLVESGGGLVQAGGSLRLSCAASGFTFYGNAMGWYRQAPGKERELVAAISSRVGRTYYADSVKGRFTISRDNAKNTVYLQMNSLKPEDTAVYYCAKAPYGVRRGLYDYWGQGTQVTVSS | polyreactivity (PSR sort gate) | high polyreactivity |
| QVQLVESGGGLVQAGGSLRLSCAASGIIFWYYAMGWYRQAPGKERELVAAISRGGTTYYADSVKGRFTISRDNAKNTVYLQMNSLKPEDTAVYYCAAGVRYRLTRYFYPDFDYWGQGTQVTVSS | polyreactivity (PSR sort gate) | high polyreactivity |
| QVQLVESGGGLVQAGGSLRLSCAASGFTFYRYAMGWYRQAPGKERELVAAITWSGGSTYYADSVKGRFTISRDNAKNTVYLQMNSLKPEDTAVYYCAASRWIFQVNDYDYWGQGTQETVSS | polyreactivity (PSR sort gate) | high polyreactivity |
| QVQLVESGGGLVQAGGSLRLSCAASGSTFFPNGMGWYRQAPGKERELVAAITQDGGSTYYADSVKGRFTISRDNAKNTVYLQMNSLKPEDTAVYYCAASAGPYYEYGYWGQGTQVTVSS | polyreactivity (PSR sort gate) | low polyreactivity |
| QVQLVESGGGLVQAGGSLRLSCAASGSIFLAYLKGWYRQAPGKERELVAAISYRGVSTYYADSVKGRFTISRDNAKNTVYLQMTRLNPEDTAVYYFAAEHLWGAVFLYVRSTGLDYWGQGTQVTVSS | polyreactivity (PSR sort gate) | low polyreactivity |
| QVQLVESGGGSLRLSCAASGLTFGGYTMGWSRQAPGKERELFAAISSSDSTNYADSVKGRFTISRDNAKNTVYLQMNSLKPEDTAVYYCAADSGQWCRFSSFGDEGDSWGQGTQVTVSS | polyreactivity (PSR sort gate) | low polyreactivity |
| QVQLVESGGGLVQAGGSLRLSCAASGSTFALNAMGWYRQAPGKERELVADINYIGDSTYYADSVKGRFTISRDNAKNTVYLLMNSLKPEDTAVYYCAAKSIIRPYAPRRDDMDYWGQGTQVTVSS | polyreactivity (PSR sort gate) | low polyreactivity |
| QVHLVESGGGLVQAGGSLRLSCAASGSTIDINAMGWYRQAPGKERELVAAISSGGITNYADSVKGRFTISRDNAKNTVYLQMNSLKPEDSAVYYCATQTYTFRWFGSPGWFDYWGQGTQVTVSS | polyreactivity (PSR sort gate) | low polyreactivity |
| QVQLVESGGGLVQAGGSLRLSCSAYGFIFTGYAMGWYRQAPGKEREFVAAISYSGGSTYADSVKGRFTISRDNAKNSVYLQMNSLKPEDTAVYYCNARQGLWRYTAENDYWGQGTQVTVSS | polyreactivity (PSR sort gate) | low polyreactivity |
| QVQLVESGGGLVQAGGSLRLSCAASVSTFQVYGMGWYREAPGKERELVAAISYSGGRTYYADSVKGRFTISRDNAKNTVYLQMNILKPEDTAVYYCNAVLAHDPRLDYWGQGTQVTVSS | polyreactivity (PSR sort gate) | high polyreactivity |

Entry under test: QVQLVESGGGLVQAGGSLRLSCAASGIIFDYYAMGWYRQAPGKERELVATITGNSTNTYYADSVKGRFTISRDNAKNTVYLQMNSLKPEDTAVYYCATAQTRWWPSIAGYDYWGQGTQVTVSS . Its polyreactivity (PSR sort gate) was high polyreactivity

---

# protocol-text: yeast display, Sf9 membrane polyspecificity reagent, FACS + sequencing; frameworks hold sequencing errors
value-type: polyreactivity (PSR sort gate)

Some entries whose results are on file:
| biopolymer-sequence | polyreactivity (PSR sort gate) |
| --- | --- |
| QVQLVESGGGLVHAGGRLRLRCAASGSIFGYYAMAWYRHAPGKETELVAAISRRGGRTYYADSVKGRFTISRDNAKNTVYLQMNSLKPEDTAVYYCAKDRYYSELQYPYYRGDYWGQGTQVTVSS | high polyreactivity |
| QVQLVESGGGLVQAGGSLRLSSAASGSIFYVYAMGWYRQAPGKERELVAAISGGGGSTYYADSVKGRFTISRDNAKNTVYLQMNSLKPEDTAVYYCAADLSGGPYLGGYDYWGQGTQVTVSS | high polyreactivity |
| QLQLVESGGGLVQAGGSLRLSCAASASTFYRYAMCCYIQAPGKERELVAGISSSGGSTYYADSVKGRFTISRDNAKNTVYLQMNSLKPEDTAVYYCAAVGQWGYGYWGQGTQVTVSS | high polyreactivity |
| QVQLVESGGGLVQAGGSLRLSCAASGLIFWYSAMGWYRQAPGKERELVAAISSGGSTNYADSVKGRFTISRDNAKNTVYLQMNSLKPEDTAVYYCNVYTYRFHTARQAVDYWGQGTQVTVSS | low polyreactivity |
| QVQLVESGGGLVQAGGSLRLSCAASGIIFDYNAMGWYRQAPGKERELVDSIDSGCSTNYADSVKGSFTISRDNAKNTVYLQMNSLKPEDTAVYYCNADDTTVSPWYYYYQSYYWGQGTQVTVSS | low polyreactivity |

Entry under test: QVQLVESGGGLVQAGGSLRLSCAASGFTFNDYAMGWYRQAPGKERELVAAIDWSGGRTYYADSVKGRFTISRDNAKNTVYLQMNSLKPEDTAVYYCAAVLYSRMYWYRLDYWGQGTQVTVSS . Its polyreactivity (PSR sort gate) was low polyreactivity

Entry under test: QVQLVESGAGLVQAGGSLRLSCAASGSILYINTMGWYRQAPGKERELVAAITSSGGSTYYADSVKGRFTISRDNAKNTVDLQMNSLKPEDTAVYYCAAVGYYGGYNYWGQGTQVTVSS . Its polyreactivity (PSR sort gate) was low polyreactivity

---

# protocol-text: yeast display, Sf9 membrane polyspecificity reagent, FACS + sequencing; frameworks hold sequencing errors
value-type: polyreactivity (PSR sort gate)

Some entries whose results are on file:
| biopolymer-sequence | polyreactivity (PSR sort gate) |
| --- | --- |
| QGQLVESGGGLVQAGGSLRLSCAASGRTFKYNVMGWYRQAPGKERELVAAISSGGGTNYADSVKGRFTISRDNAKNTVDLQMNSLKPEDTAVYYCAAKYAWRLLEMYYWGQGTQVTVSS | low polyreactivity |
| QVQLVESGGCLVQAGGSLRLMCAASGSTFRVNAMGWSRQAPGKERELVAAITRGGSTNYADSVKGRFTISRDNAKNTVYLQMNSLKPEDTAVYYCNAGDDFGRYVPFSWGRFDYWGQGTQVTESS | low polyreactivity |
| QVQLVESGGGLVQAGGSLRLSCAASGITFYQYVMGRYRQAPGKERELVAAISTSGDSTYYADYVKGRFTISRDNAKNTVYLQINSLKTEDTAVYYCATYWSGHYYYWGQGTQVTVSS | high polyreactivity |
| QVQLVESGGGLVQAGGSLRLICAASGSTFGRNAMGWYRQAPGKERELVAAITASGGTTYYADSVKGRFTISRDNAKNTVYLQMNSLKPEDTAVYYFARAGHFSFKYDYWGQGTQVTVSS | low polyreactivity |
| QVQLVESGGGLVQAGGSLRLICAASGRTFTHNAMGWSRQAPGKERELVAGITSGCSTNYADSVKGRFTISRDNAKNTVYLQMNSLKPEDTAVYYCNKVFFWSRYKGYYYWGQGTQVTVSS | high polyreactivity |

Entry under test: QVQLVESGGGLVQAGGSLRLSCAASGSTFDSYAMGWSRQAPGKERELVARINDSGGSTYYADSVKGRFTISRDNAKNTVYLHMNSLKPEDTAVYYCNAYSWYFLPNMDYWGQGTQVTVSS . Its polyreactivity (PSR sort gate) was low polyreactivity

Entry under test: QVQLVESGGGLVQAGGSLRLSCAASGITFVSNGMGWYRTAPGKERELVAAITRSGGSTYYADSVKGRFTISRDNAKNTVYLQMNSLKPEDTAVYYCNARTSRYRRGGDSWGQGTQVTVSS . Its polyreactivity (PSR sort gate) was high polyreactivity

Entry under test: QVQLVESGGGLVQAGGSLRLSCAASGLIFGWYAMGWDRQAPGKERELVAAITRSGGSTYYADSVKGRFTISRDTAKNTVYLQMHSLKPEDTAVYSCAAEIHYSYTRGYGYWGQGTQVTVSS . Its polyreactivity (PSR sort gate) was high polyreactivity

Entry under test: QVQLVESGGGLVQAGGSLRLSCAASGGIFGYYAMGWYRQAPGTEREFVAAITARGGRTYYADSVKGRFTISRDNAKNTVYLQMNSLKPEDTAVYDCAAYSPVWGRYYHRVERDYWGQGTQVTVSS . Its polyreactivity (PSR sort gate) was high polyreactivity

Entry under test: QVQLVESGGGLVQAGGSLRLSCAASGSTFDYYAMGWSRQAPGKERELVAGITGGGSTYYADSVKGRFTISRDNAKNTVYLQMNSLKPEDTAVYYCNAGPALRYDYWGQGTQVTVSS . Its polyreactivity (PSR sort gate) was low polyreactivity

Entry under test: QVQLVESGGGLVQAGGSLRISCAASGIILGYYPMGWYRQAPGKERELVAAINWSGASTYYADSVKGRFTISRDNAKNTVYLQMNCLKPEDTAVYDCNAVGYYYRGTGEYDYWGQGTQVTVSS . Its polyreactivity (PSR sort gate) was high polyreactivity
